- experimental_protocol: yeast growth modulation, basal conditions, primary screen, YJM789 clinical isolate, OD600, 24 h (AID 1089);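 note: growth of clinical yeast isolate S. cerevisiae YJM 789 seeded 1000 cells per well; test concentration not given here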
- experimental_context: S. cerevisiae YJM789 growth, higher = more signal, called active from +8 up or from −8 down
Binary call on z-score: YES from -0.2 upward, NO beneath that.

The following compounds have reported results that may help.
INSERT INTO results (compound, class_assignment) VALUES
  ('C=C(COC)/C(=C/C[C@@H](OC(C)=O)c1ccc(OCCO)cc1)c1cc(C(=O)OC)ccc1OC', 'YES'),
  ('CC1CC/C=C\[C@H]2OC34C=CCN(C(C)(C)C)C(=O)[C@H]3N(CCCCCCO)C(=O)[C@@H]4C2C(=O)O1 (some centres not stated)', 'NO'),
  ('CN(C)CCCCCCNC(=O)[C@@H]1C[C@@H]2C(=O)N[C@@H](CCCCN)C(=O)N2[C@@H]1c1cccc(OCCO)c1', 'NO'),
  ('CC(C)N1C(=O)[C@@]2(Cc3ccccc31)c1ccccc1C(=O)N(C1CCCCC1)[C@H]2c1ccc(CO)cc1', 'YES'),
  ('CCCCCN1CC=CC23O[C@@H]4/C=C\CCCOC(=O)C4[C@H]2C(=O)N(C(CO)C(C)C)[C@@H]3C1=O (some centres not stated)', 'NO'),
  ('COc1ccc(C#Cc2ccc3c(c2)[C@]2(C(=O)N3)[C@H](c3ccccc3OCCO)N3[C@H](c4ccccc4)[C@H](c4ccccc4)OC(=O)[C@H]3[C@@H]2C(=O)O)cc1', 'YES');

Record COC(=O)[C@@]1(Cc2ccc(F)cc2)[C@H]2c3cc(C(=O)N(C)C)n(CC4CC4)c3C[C@H]2CN1C(=O)c1ccccc1 ; criterion: z-score no lower than -0.2. Met? YES

###

- experimental_protocol: splicing luciferase reporter signal modulators, primary screen, spliceosome inhibition project, cell-based, HEK293, splice +/- reporter (AID 1101);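 note: HEK293 cells carrying a splicing-competent luciferase reporter gene; test concentration not given here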
- experimental_context: luminescence, 24 h, higher = more signal, called active from +8 up or from −8 down
Binary call on z-score: true from -0.08 upward, false beneath that.

The following compounds have reported results that may help.
INSERT INTO assay_data (compound, class_assignment) VALUES
  ('CC(C)(C)OC(=O)CC[C@]1(C(=O)NCC(O)CO)COC(c2ccc(OCCCO)cc2)=N1 (some centres not stated)', 'true'),
  ('CC(C)(C)OC(=O)CC[C@@]1(C(N)=O)N=C(c2ccc(OCCCO)cc2)O[C@@H]1c1ccccc1', 'true'),
  ('C=CCNC(=O)[C@H]1[C@@H]2C(=O)O[C@@H](c3ccccc3)[C@@H](c3ccccc3)N2[C@@H](c2ccccc2OCCO)[C@]12C(=O)Nc1ccc(C#CC3=CCCCC3)cc12', 'false'),
  ('O=C1O[C@H](c2ccccc2)[C@H](c2ccccc2)N2[C@H]1[C@@H](C(=O)N1CCN(c3ncccn3)CC1)[C@]1(C(=O)Nc3ccc(C#CC4=CCCCC4)cc31)[C@H]2c1ccc(O)cc1', 'false'),
  ('COc1ccc([Si](C)(C)[C@H]2[C@H](CCO)O[C@@]3(C(=O)N(C)c4c(Br)cc(C)cc43)[C@@H]2C)cc1', 'true');

Now look at this entry.
Record COc1ccc(C(=O)O[C@H]2CC[C@]3(C)C4=C(CCC3C2(C)C)[C@]2(C)CC[C@H]([C@H](C)CCCC(C)C)[C@@]2(C)CC4)cc1 (some centres not stated) ; criterion: z-score no lower than -0.08. Met? false
